test: Ratio of drug level in brain to plasma in rat at 10 mg/kg, po after 2 hrs; assay type: ADME, organism-based; parameters: dose 10 mg/kg, route oral; details: read-out: BPR
readout type: Kp at 2 h
Write no unit; give the number alone.

(Q) What does the data say about its Kp at 2 h? Entry: `O=C1O[C@]2(CC[C@H](C(=O)Nc3ccn(-c4ccccc4)n3)CC2)c2cnccc21`
(A) 1.06

----------
test system: Brain; conditions: rat, in vivo, po, 10 mg/kg, 2 h
Description: Drug level in rat brain at 10 mg/kg, po after 2 hrs
Output 1 for records whose Drug uptake is lower than 1 nmol/g, 0 for records at or above 1 nmol/g.

The following compounds have reported results that may help.
compound: O=C1O[C@]2(CC[C@H](C(=O)Nc3cnc(-c4ccccc4)cn3)CC2)c2cccnc21
category: 0
--
compound: O=C1O[C@]2(CC[C@H](C(=O)Nc3cnn(-c4ccccc4)c3)CC2)c2cnccc21
category: 1

(Q) Does `O=C1O[C@]2(CC[C@H](C(=O)Nc3cnn(-c4ccccc4)n3)CC2)c2cnccc21` have Drug uptake strictly under 1 nmol/g?
(A) 0

(Q) Same for `O=C1O[C@]2(CC[C@H](C(=O)Nc3ccn(-c4cccc(F)c4)n3)CC2)c2cnccc21`
(A) 0

(Q) Same for `O=C1O[C@]2(CC[C@H](C(=O)Nc3cnn(-c4ccccc4)c3)CC2)c2cccnc21`
(A) 1

(Q) Same for `O=C1O[C@]2(CC[C@H](C(=O)Nc3ccn(-c4ccccc4)n3)CC2)c2cnccc21`
(A) 0

(Q) Same for `O=C1O[C@]2(CC[C@H](C(=O)Nc3cc(-c4ccccc4)[nH]n3)CC2)c2cnccc21`
(A) 1

(Q) Same for `O=C1O[C@]2(CC[C@H](C(=O)Nc3ccn(-c4ccc(F)cc4)n3)CC2)c2cnccc21`
(A) 0

(Q) Same for O=C1O[C@]2(CC[C@H](C(=O)Nc3ccn(-c4ccccc4F)n3)CC2)c2cnccc21 [MK-0557]
(A) 0

(Q) Same for `O=C1O[C@]2(CC[C@H](C(=O)Nc3ccn(-c4ccccc4)n3)CC2)c2cccnc21`
(A) 0

Attribution: ChEMBL document CHEMBL1152582
